- target: Adenosine kinase (Rattus norvegicus)
- Sequence (Q64640 whole entry): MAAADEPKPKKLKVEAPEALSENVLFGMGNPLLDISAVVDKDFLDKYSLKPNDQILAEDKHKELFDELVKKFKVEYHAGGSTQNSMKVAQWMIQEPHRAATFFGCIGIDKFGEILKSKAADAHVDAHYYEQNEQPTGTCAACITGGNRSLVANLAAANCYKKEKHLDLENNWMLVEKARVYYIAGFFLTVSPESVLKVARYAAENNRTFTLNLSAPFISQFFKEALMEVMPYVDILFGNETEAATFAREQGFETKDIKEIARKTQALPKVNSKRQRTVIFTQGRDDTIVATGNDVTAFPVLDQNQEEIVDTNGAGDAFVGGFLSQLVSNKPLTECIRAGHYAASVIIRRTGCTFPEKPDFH
IC50 strictly under 7 nM means t; at 7 nM or over means f.

Report whether reported IC50 is lower than 7 nM (strictly) for CN(C)c1ccc(-c2nc3ncnc(N)c3cc2-c2ccccc2)cc1 f

Next:
Report whether reported IC50 is lower than 7 nM (strictly) for CN(C)c1ccc(-c2nc3ncnc(N)c3c(-c3ccccc3)c2-c2ccccc2)cc1 f

Report whether reported IC50 is lower than 7 nM (strictly) for COCCN(C)c1ccc(-c2nc3ncnc(N)c3c(-c3cc(Br)cs3)c2-c2ccc(OC)c(OC)c2)cc1 t

Report whether reported IC50 is lower than 7 nM (strictly) for Cc1ccc(-c2c(-c3cccs3)nc3ncnc(N)c3c2-c2ccc(C)c(F)c2)cc1F t

Report whether reported IC50 is lower than 7 nM (strictly) for COc1ccc(-c2c(-c3cccs3)nc3ncnc(N)c3c2-c2cc(Br)cs2)cc1OC t

Report whether reported IC50 is lower than 7 nM (strictly) for Clc1ccc(-c2cnc3c(N4CCOCC4)ncnc3n2)cc1 f

Report whether reported IC50 is lower than 7 nM (strictly) for CCCCCc1c(-c2ccc(N(C)C)nc2)nc2ncnc(N)c2c1-c1cccc(Br)c1 f

Report whether reported IC50 is lower than 7 nM (strictly) for CC(C)c1ccc(-c2c(-c3ccc(N(C)C)cc3)nc3ncnc(N)c3c2-c2ccc(C(C)C)cc2)cc1 t

Report whether reported IC50 is lower than 7 nM (strictly) for Nc1ncnc2nc(-c3ccc(N4CCOCC4)nc3)c(-c3ccccc3)c(-c3cccc(Br)c3)c12 t

Report whether reported IC50 is lower than 7 nM (strictly) for COC(=O)Cc1c(-c2cccs2)nc2ncnc(N)c2c1-c1cccc(Br)c1 t

Report whether reported IC50 is lower than 7 nM (strictly) for CN(C)c1ccc(-c2nc3ncnc(N)c3c(-c3cc(Br)cs3)c2C2CC2)cn1 f
